# target of assay: T1, NEMO (NF-κB essential modulator), tag-free, biotinylated (human, UniProt Q9Y6K9 1-419, biotin (in vitro biotinylation kit, biotin:NEMO molar ratio 9:1))
# T1 construct: NEMO, NF-κB essential modulator, human, 48 kDa; also called biotinylated NEMO; biotin-NEMO; source: E. coli BL21(DE3), purified (glutathione sepharose), GST removed with thrombin, biotinylated in vitro
# method summary: peptide or protein array; Invitrogen Protoarray v4.0, about 8,400 human proteins spotted on nitrocellulose-coated glass slides; 10 µg biotinylated tag-free NEMO in 120 µl probing buffer (PBS, 0.5 mM DTT, 5 mM MgCl2, 5% glycerol, 0.05% Triton X-100), 4°C, 1.5 h; bound NEMO detected with labelled streptavidin; hits Z-score > 3, hits of the biotin-GST control array subtracted
# measurement parameters: both partners purified
outcome measure: binding result

• CUE domain containing 1 (natural protein, human, UniProt Q9NWM3 1-386, looked up, CUE domain containing 1, human; also called CUEDC1; source: insect cell/baculovirus, purified, spotted (Invitrogen Protoarray v4.0)) MTSLFRRSSSGSGGGGTAGARGGGGGTAAPQELNNSRPARQVRRLEFNQAMDDFKTMFPNMDYDIIECVLRANSGAVDATIDQLLQMNLEGGGSSGGVYEDSSDSEDSIPPEILERTLEPDSSDEEPPPVYSPPAYHMHVFDRPYPLAPPTPPPRIDALGSGAPTSQRRYRNWNPPLLGNLPDDFLRILPQQLDSIQGNAGGPKPGSGEGCPPAMAGPGPGDQESRWKQYLEDERIALFLQNEEFMKELQRNRDFLLALERDRLKYESQKSKSSSVAVGNDFGFSSPVPGTGDANPAVSEDALFRDKLKHMGKSTRRKLFELARAFSEKTKMRKSKRKHLLKHQSLGAAASTANLLDDVEGHACDEDFRGRRQEAPKVEEGLREGQ = binds

# credit: paper PMC2808332
